Percent Effect listing for selected compounds.
System: Wolbachia pipientis
assay.notes: Anti-Wolbachia Cell-Based Screen
Type: functional
Design: scale not given: in the data most compounds retested in dose-response had high values
measurement.conditions: 5 µM
Screen size: about 48,000 compounds; about 13,000 (27%) showed an effect of 50% or more. This is one part of the list.
reported.metric: Percent Effect (%)

1) CN(Cc1cnn(C)c1)C(=O)NC1CCN(Cc2ccccn2)CC1    -4.519
2) CN(C)CC1CCN(Cc2nccn2CC(F)(F)F)CC1    2.033
3) CCC(C)C(=O)NCc1cccc(OCCN(C)C2CCOCC2)c1 (stereo not given)    6.512
4) c1cn(Cc2nnc(C3CCN(C4CCOCC4)CC3)n2C2CC2)cn1    2.986
5) O=C(c1cccn1Cc1cccs1)N1CCCC1Cn1cccn1 (stereo not given)    4.58
6) O=C(CCC(=O)N1CCC(Cc2ccc(CO)cc2)C1)c1ccccc1 (stereo not given)    -6.413
7) C[C@@H]1CN(C(=O)CCCn2nnc(-c3ccc(F)cc3)n2)C[C@]1(C)O    1.392
8) Cc1ccccc1CN(CCO)Cc1ncc[nH]1    -0.936
9) CC(C)C(C#N)N1CCN(Cc2nccn2CC(F)(F)F)CC1 (stereo not given)    -1.445
10) Cc1cc(CC(=O)NCC(O)c2ccc(OC(F)F)cc2)n[nH]1 (stereo not given)    -1.889
11) Cc1nc(C)n(CCCNc2ncnc3onc(C)c23)n1    1.931
12) COc1cc(C(=O)N(C)Cc2nccn2CC(F)(F)F)ccc1C    111.1
13) CNS(=O)(=O)Cc1cccc(CNCc2ccsc2)c1    -11.11
14) FC(F)(F)CCc1ccnc(N[C@H]2CC[C@H](n3cnnc3)CC2)n1    -3.85
15) CCN(CC(=O)NC)C(=O)c1cc(-c2cccc(Cl)c2)no1    -2.874
16) CC(C)CN(CC(O)c1ccccc1)C(=O)NC(C)C (stereo not given)    126.3
17) CCOc1ccc(C(=O)N(C)Cc2nccn2CC(F)(F)F)cc1    117.2
18) Cc1oc(-c2cccs2)nc1C(=O)N1CCCC1Cn1cccn1 (stereo not given)    103.5
19) CCC(CC)(CNC(C)=O)NC(C)c1ccccc1 (stereo not given)    1.082
20) O=C(Nc1nccs1)N(CCO)Cc1ccsc1    -2.808
